Test system: MDA-MB-468 spheroids with HUVEC/MSC, viability
Experiment: Anticancer human tumor MDA-MB-468 cell line growth inhibition [PI3K];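 note: spheroids exposed to agents for seven days before readout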
Conditions: curve of first compound; second compound 0.1 µM
measured.metric: IC50

{"molecule": "CC1(C)CCC(Nc2ncc(C(F)(F)F)c(-c3c[nH]c4c(P(C)(C)=O)c(C#N)ccc34)n2)CN1 (stereo unspecified) + COc1c(OCCCN2CCOCC2)ccc2c3n(c(=NC(=O)c4cnc(N)nc4)nc12)CCN3", "value.measured": "< 31.6 nM"}
{"molecule": "CC1(C)CCC(CN2CCN(c3ccc(C(=O)NS(=O)(=O)c4ccc(NCC5CCOCC5)c([N+](=O)[O-])c4)c(Oc4cnc5[nH]ccc5c4)c3)CC2)=C(c2ccc(Cl)cc2)C1 + COc1c(OCCCN2CCOCC2)ccc2c3n(c(=NC(=O)c4cnc(N)nc4)nc12)CCN3", "value.measured": "> 10000 nM"}
{"molecule": "CC(C)n1nc(-c2ccc3oc(N)nc3c2)c2c(N)ncnc21 + Cc1nc(NC(=O)N2CCCC2C(N)=O)sc1-c1ccnc(C(C)(C)C(F)(F)F)c1", "value.measured": "33 nM"}
{"molecule": "Cn1ncnc1[C@H]1c2n[nH]c(=O)c3cc(F)cc(c23)N[C@@H]1c1ccc(F)cc1 + COc1c(OCCCN2CCOCC2)ccc2c3n(c(=NC(=O)c4cnc(N)nc4)nc12)CCN3", "value.measured": "23.1 nM"}
{"molecule": "CC1(C)CCC(Nc2ncc(C(F)(F)F)c(-c3c[nH]c4c(P(C)(C)=O)c(C#N)ccc34)n2)CN1 (stereo unspecified) + CC(Nc1ncnc2nc[nH]c12)c1cc2cccc(Cl)c2c(=O)n1-c1ccccc1", "value.measured": "< 31.6 nM"}
{"molecule": "Cn1ncc(Cl)c1-c1cc(C(=O)NC(CN)Cc2cccc(F)c2)sc1Cl (stereo unspecified) + COc1c(OCCCN2CCOCC2)ccc2c3n(c(=NC(=O)c4cnc(N)nc4)nc12)CCN3", "value.measured": "< 31.6 nM"}
{"molecule": "CC(C)n1nc(-c2ccc3oc(N)nc3c2)c2c(N)ncnc21 + CC(Nc1ccc2c(c1)OCCn1cc(N3C(=O)OCC3C(F)F)nc1-2)C(N)=O", "value.measured": "36.7 nM"}
{"molecule": "C=CC(=O)N1CCN(c2nc(=O)n(-c3c(C)ccnc3C(C)C)c3nc(-c4c(O)cccc4F)c(F)cc23)C(C)C1 (stereo unspecified) + Cc1nc(NC(=O)N2CCCC2C(N)=O)sc1-c1ccnc(C(C)(C)C(F)(F)F)c1", "value.measured": "> 10000 nM"}
{"molecule": "Cn1nccc1Nc1nccc(-c2ccn(C(CO)c3ccc(Cl)c(F)c3)c(=O)c2)n1 (stereo unspecified) + CC(Nc1ccc2c(c1)OCCn1cc(N3C(=O)OCC3C(F)F)nc1-2)C(N)=O", "value.measured": "> 10000 nM"}
{"molecule": "CCN1CCN(Cc2ccc(Nc3ncc(F)c(-c4cc(F)c5nc(C)n(C(C)C)c5c4)n3)nc2)CC1 + CC(Nc1ncnc2nc[nH]c12)c1cc2cccc(Cl)c2c(=O)n1-c1ccccc1", "value.measured": "> 1000 nM"}
{"molecule": "CC(Cn1ccc(-c2ccc(C#N)c(Cl)c2)n1)NC(=O)c1cc(C(C)O)[nH]n1 (stereo unspecified) + CC(Nc1ncnc2nc[nH]c12)c1cc2cccc(Cl)c2c(=O)n1-c1ccccc1", "value.measured": "> 10000 nM"}
